System: E. coli (ATCC25922)
Assay Info: Determination of the minimum bactericidal concentration (MBC)
Format: cell-based
Assay Readout: MCB (mg/mL)
Write it as a number; the unit mg/mL goes unstated.

Enquiry: Item C=C(C)C(=O)NCCC[N+](C)(C)CCCCCCCCCCCC[N+](C)(C)CCCNC(=O)C(=C)C.[Br-].[Br-] [Example 3] has what recorded MCB?
Return: 1.25

Enquiry: Item C=C(C)C(=O)OCC[N+](CC)(CC)CCCCCCCCCCCC[N+](CC)(CC)CCOC(=O)C(=C)C.[Br-].[Br-] [Example 5] has what recorded MCB?
Return: 0.156

Enquiry: Item C=C(C)C(=O)OCC[N+](C)(C)CCCCCCCCCCCC[N+](C)(C)CCOC(=O)C(=C)C.[Br-].[Br-] [Example 1] has what recorded MCB?
Return: 0.625

Enquiry: Item C=C(C)C(=O)Nc1ccc([N+](C)(C)CCCCCCCCCCCC[N+](C)(C)c2ccc(NC(=O)C(C)=O)cc2)cc1.[Br-].[Br-] [Example 6] has what recorded MCB?
Return: 0.002

Enquiry: Item C=C(C)C(=O)NCc1cc[n+](CCCCCCCCCCCC[n+]2ccc(CNC(=O)C(=C)C)cc2)cc1.[Br-].[Br-] [Example 7] has what recorded MCB?
Return: 0.0025
